# assayName: T. gondii ME49Luc in HeLa cells, luciferase assay, 72 h, no IFN-y (AID 1259421)
# testConditions: stronger effect = lower value, concentration not given here
The campaign covered roughly 6,400 compounds. About 610 (9.5%) were called active. What follows is part of a selection rich in actives, with near analogues and random picks from the rest.
outcomeMeasure: activity change, negative = inhibition (%)
All answers are understood in %, so give the number only.

Before answering, review these 5 worked examples.
- compound: "O=C(O)c1cc2occc2[nH]1"
  quantitativeReadout: 12
- compound: "CN1CCN(C2Cc3ccccc3Sc3ccc(Cl)cc32)CC1 (stereo not given)"
  quantitativeReadout: 7.98
- compound: "CCCCc1oc2ccccc2c1C(=O)c1cc(I)c(OCCN(CC)CC)c(I)c1"
  quantitativeReadout: -58.9
- compound: "C[C@@H]1COC(Nc2ccc3ncnc(Nc4ccc(OCc5nccs5)c(Cl)c4)c3c2)=N1"
  quantitativeReadout: -65.9
- compound: "Cc1cc(Cl)ccc1OCCCC(=O)NO"
  quantitativeReadout: -90

Shift focus to the following entry.
Task: What does the data say about its activity change, negative = inhibition? Entry: C[C@H]1[C@@H](O)O[C@@H]2O[C@@]3(C)CC[C@H]4[C@H](C)CC[C@@H]1[C@@]24OO3
Result: -93.7

* * *

# assayName: T. gondii ME49Luc in HeLa cells, luciferase assay, 72 h, no IFN-y (AID 1259421)
# testConditions: stronger effect = lower value, concentration not given here
Out of some 6,400 compounds screened, about 610 (9.5%) were called active. The entries come from a sample that favours actives as a whole.
outcomeMeasure: activity change, negative = inhibition (%)
Please reply with the bare figure in % and do not write the unit itself.

- compound: "Cc1cc(OCCCS(C)(=O)=O)cc(C)c1-c1cccc(COc2ccc3c(c2)OC[C@H]3CC(=O)O)c1"
  unit: "%"
  quantitativeReadout: 15.8
- compound: "OC(CN1CCNCC1)Cn1c2ccc(Br)cc2c2cc(Br)ccc21 (configuration not stated)"
  unit: "%"
  quantitativeReadout: -61.8
- compound: "O=c1c(-c2ccc(O)cc2)coc2c([C@@H]3O[C@H](CO)[C@@H](O)[C@H](O)[C@H]3O)c(O)ccc12"
  unit: "%"
  quantitativeReadout: -0.619
- compound: "CO[C@H]1C=CO[C@@]2(C)Oc3c(C)c(O)c4c(O)c(c5c(nc6cc(C)ccn65)c4c3C2=O)NC(=O)/C(C)=C\\C=C[C@H](C)[C@H](O)[C@@H](C)[C@@H](O)[C@@H](C)[C@H](OC(C)=O)[C@@H]1C"
  unit: "%"
  quantitativeReadout: -17.3
- compound: "CCN(CC)CCN(Cc1ccc(-c2ccc(C(F)(F)F)cc2)cc1)C(=O)Cn1c(SCc2ccc(F)cc2)nc(=O)c2c1CCC2"
  unit: "%"
  quantitativeReadout: -77.9

Task: Which activity change, negative = inhibition value belongs to C=COCC(F)(F)F ?
Result: 2.78

Task: What would you report for C=CC(=O)Nc1cccc(OC)c1 ?
Result: 7.29

Task: Would you kindly repeat that for O=c1c(-c2ccc(O)cc2)coc2c(C3O[C@H](CO)[C@@H](O)[C@H](O)[C@H]3O)c(O)ccc12 (some centres not stated) ?
Result: -5.75

Task: Entry to check: Nc1nc(N)c([NH2+][O-])c(OCC2CCCCC2)n1
Result: 6.35

Task: Now consider CC/C=C\C/C=C\C/C=C\CCCCCCCC(=O)O and answer again.
Result: 11.4

Task: Follow-up item: CO[C@H]1C=CO[C@@]2(C)Oc3c(C)c(O)c4c(O)c(c(/C=N/N5CCN(C6CCCC6)CC5)c(O)c4c3C2=O)NC(=O)/C(C)=C\C=C[C@H](C)[C@H](O)[C@@H](C)[C@@H](O)[C@@H](C)[C@H](OC(C)=O)[C@@H]1C
Result: -5.33

Task: Now this one: CNc1cc(OC)c(C(=O)N[C@@H]2CCN(Cc3ccccc3)[C@H]2C)cc1Cl
Result: 15.3

* * *

# assayName: T. gondii ME49Luc in HeLa cells, luciferase assay, 72 h, no IFN-y (AID 1259421)
# testConditions: stronger effect = lower value, concentration not given here
Hit rate of the full screen: of about 6,400 compounds, about 610 (9.5%) were called active. The sample holds actives, similar compounds and a random draw of the others, so the mix is not that of the screen.
outcomeMeasure: activity change, negative = inhibition (%)
I only need the number, in %, no unit after it.

Below: 4 molecules and their reported activity change, negative = inhibition.
- molecule: "O=C(/C=C/c1ccc(O)c(O)c1)OC(Cc1ccc(O)c(O)c1)C(=O)O (stereo unspecified)"
  activity change, negative = inhibition (%): 2.52
- molecule: "CS(=O)(=O)c1ccc(-c2nc(-c3ccc(F)cc3)c(-c3ccncc3)[nH]2)cc1"
  activity change, negative = inhibition (%): -5.72
- molecule: "COc1ccc2c(c1)c(C1=C(c3c[nH]c4ccccc34)C(=O)NC1=O)cn2CCCN(C)C"
  activity change, negative = inhibition (%): -36.9
- molecule: "COc1cc(C(=O)NC2CCCNC2)cc(OC)c1OC (stereo unspecified)"
  activity change, negative = inhibition (%): 25.6

Task: Recorded activity change, negative = inhibition for COC1C(O)[C@@H](O)C(O)C(O)[C@H]1O (stereo partly specified) , please?
Result: 4.8

Task: Follow-up entry: C[C@@H](N)c1ccc(C(=O)Nc2ccnc3[nH]ccc23)cc1
Result: -3.01

Task: Next molecule: Cc1[nH]c2ccccc2c1CCNC(=O)c1cccs1
Result: 9.58

Task: Same for CC(C)=CCC/C(C)=C/COc1ccc2ccc(=O)oc2c1
Result: 17.8

Task: Next up: CNC(=O)c1cc(COc2nnc(Nc3ccc(Cl)cc3)c3ccoc23)ccn1
Result: -9.12

Task: What do you get for O=C(CC(c1ccccc1)c1ccccc1)N1CCN(C(c2ccccc2)c2ccccc2)CC1 ?
Result: 61.6

Task: Query CCCCCCCC/C=C/C(=O)O next
Result: 1.14

Task: // same read-out, input: Cc1ccc(C(=O)N(CCCN)[C@@H](c2oc3cc(Cl)ccc3c(=O)c2Cc2ccccc2)C(C)C)cc1
Result: -80.4

Task: Item: N#Cc1ncccn1
Result: 3.94

Task: Consider next the molecule CC(=O)NCCc1c(Cc2ccccc2)[nH]c2ccccc12 in the same way.
Result: -2.39

* * *

# assayName: T. gondii ME49Luc in HeLa cells, luciferase assay, 72 h, no IFN-y (AID 1259421)
# testConditions: stronger effect = lower value, concentration not given here
Among all 6,400 compounds or so, about 610 (9.5%) were called active. The full list was thinned out, with actives kept by preference.
outcomeMeasure: activity change, negative = inhibition (%)
// note: answer is a bare numeric in %

Example cases with answers are listed next.
- compound: "O=C(NOCC1CC1)c1ccc(F)c(F)c1Nc1ccc(I)cc1Cl"
  activity change, negative = inhibition / %: 11.9
- compound: "CCCn1c(=O)[nH]c(=O)c2[nH]cnc21"
  activity change, negative = inhibition / %: 6.86
- compound: "CC1(C)CCC(C)(C)c2cc(Cn3cccn3)c(/C=C/c3ccc(C(=O)O)cc3)cc21"
  activity change, negative = inhibition / %: 15.2
- compound: "O=C(O)/C=C/c1ccc(-c2ccc(O)c(C34CC5CC(CC(C5)C3)C4)c2)cc1"
  activity change, negative = inhibition / %: -96.6
- compound: "CC(=O)SCCC(=O)N1C(C)CCCC1C(=O)O (centres undefined)"
  activity change, negative = inhibition / %: 20.2

Task: Would you mind telling me what activity change, negative = inhibition value was observed for Cn1c(=O)n(-c2ccc(C(C)(C)C#N)cc2)c2c3cc(-c4cnc5ccccc5c4)ccc3ncc21 ?
Result: 13.4

Task: COc1cc(OC)c(/C=C/S(=O)(=O)Cc2ccc(OC)c(NCC(=O)O)c2)c(OC)c1 ?
Result: -46.4

Task: What do you have for O=C1c2ccccc2-n2c1nc1ccccc1c2=O ?
Result: -48.4

Task: Same lookup for C[C@@H](NCCCc1cccc(C(F)(F)F)c1)c1cccc2ccccc12 , please.
Result: 58.2

Task: Now this one: CC1=C2C(O)C(=O)OC3CC4C(C)(C)C(=O)C=C[C@]4(C)C(CC1)[C@]23C (some centres undefined)
Result: 9.55

* * *

# assayName: T. gondii ME49Luc in HeLa cells, luciferase assay, 72 h, no IFN-y (AID 1259421)
# testConditions: stronger effect = lower value, concentration not given here
The campaign covered roughly 6,400 compounds. About 610 (9.5%) were called active. Only a selection was taken, and actives are over-represented in it overall.
outcomeMeasure: activity change, negative = inhibition (%)
I only need the number, in %, no unit after it.

Study these solved cases before continuing.
- molecule: "O=C(O)CCC(=O)O"
  activity change, negative = inhibition, %: -23.1
- molecule: "CN1CCN(c2ccc(OC(F)(F)F)c(Nc3ncc4c(n3)-c3c(c(C(N)=O)nn3CCO)CC4)c2)CC1"
  activity change, negative = inhibition, %: -90.8
- molecule: "C=CC(=O)Nc1cccc(Oc2nc(Nc3ccc(N4CCN(C)CC4)cc3OC)ncc2Cl)c1"
  activity change, negative = inhibition, %: -35.2
- molecule: "O=C(O)CO.[NH2-].[NH2-].[Pt+2]"
  activity change, negative = inhibition, %: -0.913
- molecule: "CCC[C@H](NC(=O)[C@@H]1[C@H]2CCC[C@H]2CN1C(=O)[C@@H](NC(=O)[C@@H](NC(=O)c1cnccn1)C1CCCCC1)C(C)(C)C)C(=O)C(=O)NC1CC1"
  activity change, negative = inhibition, %: -72.4

Task: Given the entry Nc1cc(Nc2ccc(S(N)(=O)=O)cc2)ncn1 , report its measured activity change, negative = inhibition.
Result: 14.5
